Molecular target: human ALK5 (Homo sapiens (Human), UniProt P36897)
Sequence (P36897 80-503 limits assumed): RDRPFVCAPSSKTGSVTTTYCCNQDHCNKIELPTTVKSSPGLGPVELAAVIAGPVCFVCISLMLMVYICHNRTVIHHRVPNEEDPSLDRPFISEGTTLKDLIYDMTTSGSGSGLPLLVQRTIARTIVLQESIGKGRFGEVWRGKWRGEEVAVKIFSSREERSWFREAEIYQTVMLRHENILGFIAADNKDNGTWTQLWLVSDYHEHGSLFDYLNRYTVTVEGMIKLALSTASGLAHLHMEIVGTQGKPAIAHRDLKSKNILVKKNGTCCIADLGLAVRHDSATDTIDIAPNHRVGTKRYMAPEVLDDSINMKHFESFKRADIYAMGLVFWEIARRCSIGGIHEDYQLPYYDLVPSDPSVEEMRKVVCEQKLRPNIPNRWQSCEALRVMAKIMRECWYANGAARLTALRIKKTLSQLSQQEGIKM
Experiment: ADP-GLO Kinases assay, inhibition of ALK5 kinase activity
Assay type: biochemical
Settings: Table 12; compounds classified in term of potency; ATP at Km, 25° C.; read-out: ALK5 IC50
# IC50 annotations

Would you please look over these solved cases?
molecule="CNCCNC(=O)c1cncc(-c2cc(-c3cc(Cl)ccc3F)nc3c2OCCN3)c1 [Example 23]" endpoint=IC50 value_measured="1 to 5 nM"
molecule="CNC(=O)c1cncc(-c2cc(-c3cc(Cl)ccc3F)nc3c2OCCN3)c1 [Example 7]" endpoint=IC50 value_measured="5 to 10 nM"
molecule="CN1CCC(COc2cncc(-c3cc(-c4cc(Cl)ccc4F)nc4c3OCCN4)c2)CC1 [Example 42]" endpoint=IC50 value_measured="1 to 5 nM"

Suppose we examine the molecule Fc1ccc(Cl)cc1-c1cc(-c2cccnc2)c2c(n1)NCCO2 [Example 1] ; what IC50 value has been reported?
5 to 10 nM

Suppose we examine the molecule Cc1cccc(-c2cc(-c3cncc4ccccc34)c3c(n2)NCCO3)n1 [Example 3] ; what IC50 value has been reported?
1 to 5 nM

Suppose we examine the molecule COC(=O)CN(C)CCC(=O)Nc1cncc(-c2cc(-c3cc(Cl)ccc3F)nc3c2OCCN3)c1 [Example 48] ; what IC50 value has been reported?
5 to 10 nM

Suppose we examine the molecule Cc1cccc(-c2cc(-c3cnc4[nH]ncc4c3)c3c(n2)NCCO3)n1 [Example 35] ; what IC50 value has been reported?
5 to 10 nM

Suppose we examine the molecule O=C(CCN1CCOCC1)Nc1cncc(-c2cc(-c3cc(Cl)ccc3F)nc3c2OCCN3)c1 [Example 9] ; what IC50 value has been reported?
1 to 5 nM

* * *

Biological target: human ALK5 (Homo sapiens (Human), UniProt P36897)
Assay: ADP-GLO Kinases assay, inhibition of ALK5 kinase activity
Type: biochemical
Settings: Table 12; compounds classified in term of potency; ATP at Km, 25° C.; read-out: ALK5 IC50
pIC50: −log10 of the molar value.
# pIC50 annotations

compound="CN1CCN(CCC(=O)Nc2cncc(-c3cc(-c4cc(Cl)ccc4F)nc4c3OCCN4)c2)CC1 [Example 38]" value_measured="8.30 to 9.00"
compound="Cc1csc(-c2cc(-c3cncc4ccccc34)c3c(n2)NCCO3)n1 [Example 4]" value_measured="8.30 to 9.00"
compound="O=C(NCCN1CCOCC1)c1cncc(-c2cc(-c3cc(Cl)ccc3F)nc3c2OCCN3)c1 [Example 11]" value_measured="8.00 to 8.30"
compound="Oc1cncc(-c2cc(-c3cc(Cl)ccc3F)nc3c2OCCN3)c1 [Example 29]" value_measured="8.30 to 9.00"
compound="O=C(CCN1CCCCC1)Nc1cncc(-c2cc(-c3cc(Cl)ccc3F)nc3c2OCCN3)c1 [Example 18]" value_measured="≥ 9.00"

Suppose we examine the compound CN(C)CCCNc1cncc(-c2cc(-c3cc(Cl)ccc3F)nc3c2OCCN3)c1 [Example 30] ; what pIC50 value has been reported?
8.30 to 9.00

Suppose we examine the compound CN1CCN(CCC(=O)Nc2cncc(-c3cc(-c4cc(Cl)ccc4F)nc4c3OCCN4)c2)CC1=O [Example 46] ; what pIC50 value has been reported?
8.00 to 8.30

Suppose we examine the compound NC(=O)c1cncc(-c2cc(-c3cc(Cl)ccc3F)nc3c2OCCN3)c1 [Example 6] ; what pIC50 value has been reported?
8.30 to 9.00

* * *

Biological target: human ALK5 (Homo sapiens (Human))
Experiment: ADP-GLO Kinases assay, inhibition of ALK5 kinase activity
Assay type: biochemical
Settings: Table 12; compounds classified in term of potency; ATP at Km, 25° C.; read-out: ALK5 IC50
endpoint: IC50

compound="Fc1ccc(Cl)cc1-c1cc(-c2cncc(OCC3CCCO3)c2)c2c(n1)NCCO2 (stereo not shown)" tested_system="human ALK5 (Homo sapiens (Human))" endpoint=IC50 value_measured="5 to 10 nM"

Suppose we examine the compound Fc1ccc(Cl)cc1-c1cc(-c2cnc3[nH]ccc3c2)c2c(n1)NCCO2 ; what IC50 value has been reported?
5 to 10 nM

Suppose we examine the compound COc1cncc(-c2cc(-c3cc(Cl)ccc3F)nc3c2OCCN3)c1 ; what IC50 value has been reported?
≤ 1 nM

Suppose we examine the compound CN(C)CCCNC(=O)c1cncc(-c2cc(-c3cc(Cl)ccc3F)nc3c2OCCN3)c1 ; what IC50 value has been reported?
≤ 1 nM

* * *

# IC50 annotations
Biological target: human ALK5 (Homo sapiens (Human))
Test: ADP-GLO Kinases assay, inhibition of ALK5 kinase activity
Type: biochemical
Conditions: summary statements in running text; read-out: IC50 / potency on ALK5

Find the measured IC50: item Oc1ccc(-c2cc(-c3cc(Cl)ccc3F)nc3c2OCCN3)cc1 [Example C2] , target or system human ALK5 (Homo sapiens (Human)).
> 1700 nM

Find the measured IC50: item COc1ccc(-c2cc(-c3cc(Cl)ccc3F)nc3c2OCCN3)cc1 [Example C1] , target or system human ALK5 (Homo sapiens (Human)).
> 1700 nM

* * *

Target: human ALK5 (Homo sapiens (Human), UniProt P36897)
Assay: ADP-GLO Kinases assay, inhibition of ALK5 kinase activity
Format: biochemical
Conditions: Table 13; comparative examples, same in vitro assay; read-out: ALK5 IC50
# pIC50 annotations
Please express pIC50 as -log10 of the molar concentration.

smiles_text=COc1ccc(-c2cc(-c3cc(Cl)ccc3F)nc3c2OCCN3)cc1 value_measured=5.00

Then this molecule:
Suppose we examine the molecule Oc1ccc(-c2cc(-c3cc(Cl)ccc3F)nc3c2OCCN3)cc1 ; what pIC50 value has been reported?
5.77
